assay: Repeat-dose study in monkeys, pharmacokinetics (14 and 56 days); settings: both, cynomolgus, monkey, plasma, po, 50 mg/kg, Cmax, dose 50 mg/kg, Day 14, individual animals
READOUT_TYPE: Cmax (µg/mL)
Return type: number; implicit unit µg/mL.

[in] What Cmax value was documented for this compound, CC#C[C@@H](CC(=O)O)c1ccc(OCC(C)=C(C)C)cc1 [CPL207280] ?
[out] 59.8

----------
test: Single-dose pharmacokinetics in rats (p.o. and i.v.); format: in vivo, rat; settings: rat, plasma, 200 mg/kg, rat, dose 200 mg/kg, Day 1, individual animals; read-out: Cmax
READOUT_TYPE: Cmax (µg/mL)
Return type: number; implicit unit µg/mL.

[in] What Cmax value was documented for this compound, `CC#C[C@@H](CC(=O)O)c1ccc(OCC(C)=C(C)C)cc1` ?
[out] 198

----------
assay: in vivo; conditions: both sexes, Wistar Han, rat, po, 300 mg/kg/day, Cmax (Mean)
READOUT_TYPE: Cmax
Lab note: write values as number then unit, every time.

[in] What Cmax value was documented for this compound, CC#C[C@@H](CC(=O)O)c1ccc(OCC(C)=C(C)C)cc1 [CPL207280] ?
[out] 227 µg/mL

----------
test: Viability assay, human primary hepatocytes, RT-glo, 48 h; assay type: cell-based; details: human, primary human hepatocytes, sheet Fig1 panel C (primary human hepatocytes), 48 h, 100 uM, replicates; read-out: viability, normalized to DMSO-treated controls
READOUT_TYPE: viability at 48 h, 100 µM

COMPOUND	viability at 48 h, 100 µM
Cc1cc(OCCCS(C)(=O)=O)cc(C)c1-c1cccc(COc2ccc3c(c2)OC[C@H]3CC(=O)O)c1 [TAK-875, fasiglifam, reference compound]	4.16%

Now for the compound whose viability at 48 h, 100 µM we want.
[in] What viability at 48 h, 100 µM value was documented for this compound, `CC#C[C@@H](CC(=O)O)c1ccc(OCC(C)=C(C)C)cc1` ?
[out] 80.6%

----------
Quick reference: viability at 48 h, 25 µM of the listed items.
Experiment: Viability assay, HepG2 cells, MTT test, 48 h
Format: cell-based, human
Settings: human, HepG2 cells, sheet Fig1 panel B (HepG2), 48 h, 25 uM, replicates; read-out: viability, normalized to DMSO-treated controls
Protocol: To study the viability of the liver cells, 5 × 10^3 HepG2 (ATCC®) or human primary cells (ThermoFisher Scientific, USA) were seeded in 100 μL of DMEM media (Gibco; Thermo Fisher Scientific, USA) supplemented with fetal bovine serum (FBS)- in a 96-well plate. […] The experiments were performed in triplicates.
Return type: number; implicit unit %.

COMPOUND	viability at 48 h, 25 µM [%]
CC#C[C@@H](CC(=O)O)c1ccc(OCC(C)=C(C)C)cc1 [CPL207280]	104

Now for the compound whose viability at 48 h, 25 µM we want.
[in] What viability at 48 h, 25 µM value was documented for this compound, Cc1cc(OCCCS(C)(=O)=O)cc(C)c1-c1cccc(COc2ccc3c(c2)OC[C@H]3CC(=O)O)c1 [TAK-875, fasiglifam, reference compound] ?
[out] 67.5

----------
assay: Repeat-dose study in monkeys, pharmacokinetics (14 and 56 days); settings: both, cynomolgus, monkey, plasma, po, 50 mg/kg, Cmax, dose 50 mg/kg, Day 1, individual animals
READOUT_TYPE: Cmax (ng/mL)
Return type: number; implicit unit ng/mL.

[in] What Cmax value was documented for this compound, `CC#C[C@@H](CC(=O)O)c1ccc(OCC(C)=C(C)C)cc1` ?
[out] 38500

----------
Assay: Stability in cryopreserved hepatocytes, mouse
Type: in vitro ADME
Details: cryopreserved hepatocytes (suspension); Mouse (CD) hepatocytes, mean n = 2
Protocol: The final incubation volume was 500 μL. Two control compounds (verapamil and donepezil) were included for each microsomal species, along with the appropriate vehicle control. The reactions were terminated by transferring 50 μL of incubate to 100 μL methanol containing an internal standard (metoprolol) at appropriate time points (0, 10, 20, 40, 60, and 120 min for the test compound and 0, 5, 10, 20, 40, and 60 min for the control compounds). […]
READOUT_TYPE: microsomal CLint at 3 μM (µL/min/mg)
Return type: number; implicit unit µL/min/mg.

[in] What microsomal CLint at 3 μM value was documented for this compound, CC#C[C@@H](CC(=O)O)c1ccc(OCC(C)=C(C)C)cc1 [CPL207280] ?
[out] 3.46

----------
assay: Single-dose pharmacokinetics in rats (p.o. and i.v.); assay type: in vivo, rat; settings: rat, plasma, iv, 3 mg/kg, rat, 3 mg/kg i.v., 1 h, single animals; read-out: plasma conc
READOUT_TYPE: concentration at 1 h (ng/mL)
Return type: number; implicit unit ng/mL.

[in] What concentration at 1 h value was documented for this molecule, `CC#C[C@@H](CC(=O)O)c1ccc(OCC(C)=C(C)C)cc1` ?
[out] 10900

----------
Quick reference: half-life at 3 μM of the listed items.
assay: Stability in microsomes, mouse; type: in vitro ADME; settings: Mouse (CD) microsomes, mean n = 2

COMPOUND	half-life at 3 μM
CC#C[C@@H](CC(=O)O)c1ccc(OCC(C)=C(C)C)cc1	1.93 h

Now for the compound whose half-life at 3 μM we want.
[in] What half-life at 3 μM value was documented for this compound, Cc1cc(OCCCS(C)(=O)=O)cc(C)c1-c1cccc(COc2ccc3c(c2)OC[C@H]3CC(=O)O)c1 [TAK-875, fasiglifam, reference compound] ?
[out] 5.72 h

----------
Target: NTCP (Homo sapiens)
Construct: expressed in transfected cells; host or cells: HEK cells
Sequence (Q14973 1-349): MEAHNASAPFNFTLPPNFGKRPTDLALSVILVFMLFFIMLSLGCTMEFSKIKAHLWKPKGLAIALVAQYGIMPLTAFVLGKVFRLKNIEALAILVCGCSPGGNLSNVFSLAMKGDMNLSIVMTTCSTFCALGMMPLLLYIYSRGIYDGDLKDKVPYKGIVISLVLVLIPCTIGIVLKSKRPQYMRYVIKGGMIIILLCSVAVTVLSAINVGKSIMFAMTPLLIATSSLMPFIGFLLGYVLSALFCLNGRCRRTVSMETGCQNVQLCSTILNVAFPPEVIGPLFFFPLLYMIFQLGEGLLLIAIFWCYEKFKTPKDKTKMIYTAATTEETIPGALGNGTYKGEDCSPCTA
Experiment: Uptake transporter inhibition assay, NTCP
Type: cell-based
Conditions: transformed HEK cells, up to 300μM, n = 2
READOUT_TYPE: IC50 (µM)
Return type: number; implicit unit µM.

MOLECULE	TARGET_OR_SYSTEM	IC50, µM
CC#C[C@@H](CC(=O)O)c1ccc(OCC(C)=C(C)C)cc1 [CPL207280]	NTCP (Homo sapiens)	46.8

Now for the molecule whose IC50 we want.
[in] What IC50 value was documented for this molecule, Cc1cc(OCCCS(C)(=O)=O)cc(C)c1-c1cccc(COc2ccc3c(c2)OC[C@H]3CC(=O)O)c1 [TAK-875, fasiglifam, reference compound] ?
[out] 53.1

----------
target: MRP3 (Homo sapiens, UniProt O15438)
Sequence (O15438 whole entry): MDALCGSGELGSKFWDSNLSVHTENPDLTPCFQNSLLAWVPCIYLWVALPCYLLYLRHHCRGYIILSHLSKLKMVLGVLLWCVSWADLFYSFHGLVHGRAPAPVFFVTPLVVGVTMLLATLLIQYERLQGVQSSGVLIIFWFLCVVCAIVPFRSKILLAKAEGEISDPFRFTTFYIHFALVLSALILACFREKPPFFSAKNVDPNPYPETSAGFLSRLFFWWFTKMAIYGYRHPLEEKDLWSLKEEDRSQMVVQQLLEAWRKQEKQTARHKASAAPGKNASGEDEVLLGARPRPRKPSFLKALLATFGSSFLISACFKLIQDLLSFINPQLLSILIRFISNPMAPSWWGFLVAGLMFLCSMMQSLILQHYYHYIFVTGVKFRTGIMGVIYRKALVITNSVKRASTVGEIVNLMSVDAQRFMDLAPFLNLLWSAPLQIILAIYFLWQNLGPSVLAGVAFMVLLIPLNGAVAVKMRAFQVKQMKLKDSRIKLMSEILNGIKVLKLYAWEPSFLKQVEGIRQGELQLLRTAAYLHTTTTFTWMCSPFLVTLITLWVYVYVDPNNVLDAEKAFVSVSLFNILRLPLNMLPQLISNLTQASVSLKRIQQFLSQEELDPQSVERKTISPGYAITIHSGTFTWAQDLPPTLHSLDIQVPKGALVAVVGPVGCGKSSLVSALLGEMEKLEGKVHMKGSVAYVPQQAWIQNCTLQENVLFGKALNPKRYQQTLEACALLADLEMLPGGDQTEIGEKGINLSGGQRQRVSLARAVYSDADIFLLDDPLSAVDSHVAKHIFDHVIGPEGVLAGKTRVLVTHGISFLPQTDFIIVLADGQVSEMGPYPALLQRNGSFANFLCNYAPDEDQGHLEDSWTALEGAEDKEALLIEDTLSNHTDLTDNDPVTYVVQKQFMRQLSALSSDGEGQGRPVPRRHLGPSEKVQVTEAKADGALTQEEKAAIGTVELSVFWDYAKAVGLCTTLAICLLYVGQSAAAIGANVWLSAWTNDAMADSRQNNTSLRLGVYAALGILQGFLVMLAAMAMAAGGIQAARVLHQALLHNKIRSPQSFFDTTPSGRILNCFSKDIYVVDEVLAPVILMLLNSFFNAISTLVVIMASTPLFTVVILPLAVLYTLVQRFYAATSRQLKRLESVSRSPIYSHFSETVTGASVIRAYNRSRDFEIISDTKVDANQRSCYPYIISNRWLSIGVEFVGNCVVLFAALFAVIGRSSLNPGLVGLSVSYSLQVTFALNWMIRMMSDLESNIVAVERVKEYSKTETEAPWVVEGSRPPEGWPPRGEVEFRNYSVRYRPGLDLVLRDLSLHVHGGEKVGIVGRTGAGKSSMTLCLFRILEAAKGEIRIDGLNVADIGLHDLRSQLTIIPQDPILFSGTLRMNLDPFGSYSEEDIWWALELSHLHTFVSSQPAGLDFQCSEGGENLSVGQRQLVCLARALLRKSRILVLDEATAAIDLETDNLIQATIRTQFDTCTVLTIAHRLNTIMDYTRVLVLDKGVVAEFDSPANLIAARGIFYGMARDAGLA
READOUT_TYPE: IC50 (µM)
Return type: number; implicit unit µM.

[in] Requested read-out IC50, target or system MRP3 (Homo sapiens, UniProt O15438), entry Cc1cc(OCCCS(C)(=O)=O)cc(C)c1-c1cccc(COc2ccc3c(c2)OC[C@H]3CC(=O)O)c1 [TAK-875, fasiglifam, reference compound];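 also: membrane vesicles with radiolabelled probe substrate and 2 mM glutathione, 4 mM ATP versus AMP background control, vesicle-trapped substrate quantified by liquid scintillation counting after filtration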
[out] 31.8

----------
test: in vivo; settings: both sexes, Wistar Han, rat, po, 1200 mg/kg, exposure - AUC
READOUT_TYPE: AUC (µg·h/mL)
Return type: number; implicit unit µg·h/mL.

[in] What AUC value was documented for this molecule, CC#C[C@@H](CC(=O)O)c1ccc(OCC(C)=C(C)C)cc1 [CPL207280] ?
[out] 2590

----------
assay: Stability in microsomes, monkey; format: in vitro ADME; conditions: Monkey (Cynomolgus) microsomes, mean n = 2
READOUT_TYPE: microsomal CLint at 3 μM (µL/min/mg)
Return type: number; implicit unit µL/min/mg.

[in] What microsomal CLint at 3 μM value was documented for this molecule, `CC#C[C@@H](CC(=O)O)c1ccc(OCC(C)=C(C)C)cc1` ?
[out] 60.9

[in] What microsomal CLint at 3 μM value was documented for this molecule, Cc1cc(OCCCS(C)(=O)=O)cc(C)c1-c1cccc(COc2ccc3c(c2)OC[C@H]3CC(=O)O)c1 [TAK-875, fasiglifam, reference compound] ?
[out] 39.2

----------
test: Viability assay, human primary hepatocytes, RT-glo, 48 h; format: cell-based; conditions: human, primary human hepatocytes, sheet Fig1 panel C (primary human hepatocytes), 48 h, 6.25 uM, replicates; read-out: viability, normalized to DMSO-treated controls
READOUT_TYPE: viability at 48 h, 6.25 µM (%)
Return type: number; implicit unit %.

MOLECULE	READOUT_TYPE	RECORDED_NUMBER
Cc1cc(OCCCS(C)(=O)=O)cc(C)c1-c1cccc(COc2ccc3c(c2)OC[C@H]3CC(=O)O)c1 [TAK-875, fasiglifam, reference compound]	viability at 48 h, 6.25 µM	89.7

Now for the molecule whose viability at 48 h, 6.25 µM we want.
[in] What viability at 48 h, 6.25 µM value was documented for this molecule, `CC#C[C@@H](CC(=O)O)c1ccc(OCC(C)=C(C)C)cc1` ?
[out] 108
